target: ActRIIA and ActRIIB (on TGFB/SMAD SBE Reporter HEK293 cells) (human); assay: cell-based or functional assay
Sequence (chain, as listed by the source, chain 1 of 2): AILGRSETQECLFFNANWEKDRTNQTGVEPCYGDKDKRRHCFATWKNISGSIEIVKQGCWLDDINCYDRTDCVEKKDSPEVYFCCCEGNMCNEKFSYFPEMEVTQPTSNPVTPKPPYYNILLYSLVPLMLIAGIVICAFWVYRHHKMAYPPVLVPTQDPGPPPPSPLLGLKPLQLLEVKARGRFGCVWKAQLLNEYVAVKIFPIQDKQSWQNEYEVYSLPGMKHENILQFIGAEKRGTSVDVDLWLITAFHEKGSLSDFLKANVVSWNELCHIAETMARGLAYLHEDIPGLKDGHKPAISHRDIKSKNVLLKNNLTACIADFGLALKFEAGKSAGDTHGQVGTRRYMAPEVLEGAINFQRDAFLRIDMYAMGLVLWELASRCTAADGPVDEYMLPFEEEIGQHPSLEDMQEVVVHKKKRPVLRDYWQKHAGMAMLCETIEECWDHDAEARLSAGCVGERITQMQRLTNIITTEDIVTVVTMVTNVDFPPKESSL
Sequence (chain, as listed by the source, chain 2 of 2): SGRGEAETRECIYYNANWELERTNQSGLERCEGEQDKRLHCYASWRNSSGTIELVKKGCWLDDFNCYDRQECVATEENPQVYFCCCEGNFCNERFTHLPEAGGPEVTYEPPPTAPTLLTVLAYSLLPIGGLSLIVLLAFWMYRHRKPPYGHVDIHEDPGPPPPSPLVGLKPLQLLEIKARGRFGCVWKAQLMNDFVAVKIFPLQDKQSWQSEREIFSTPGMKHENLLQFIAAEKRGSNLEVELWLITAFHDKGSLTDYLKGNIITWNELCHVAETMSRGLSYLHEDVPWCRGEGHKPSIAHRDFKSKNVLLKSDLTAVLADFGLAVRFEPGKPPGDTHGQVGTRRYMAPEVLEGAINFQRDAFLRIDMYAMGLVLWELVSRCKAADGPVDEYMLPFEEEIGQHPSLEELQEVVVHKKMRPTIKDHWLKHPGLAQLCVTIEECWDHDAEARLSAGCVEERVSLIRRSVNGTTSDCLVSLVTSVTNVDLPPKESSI
Field: IC50, Myostatin SMAD RGA. Provide a value for each of the binders that follow.
Give bare numbers, in nM.

Give IC50, Myostatin SMAD RGA for all binders that follow.
1. Antibody Hefaknöpfla (antibody, V domains shown, full-length IgG) VH: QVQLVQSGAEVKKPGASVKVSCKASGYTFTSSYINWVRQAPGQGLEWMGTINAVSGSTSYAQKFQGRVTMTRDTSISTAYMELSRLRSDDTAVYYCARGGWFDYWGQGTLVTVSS VL: QSALTQPASVSGSPGQSITISCTGTSSDVGSKNYVNWYQQHPGKAPKLMIYGVSKRESGVSNRFSGSKSGNTASLTISGLQAEDEADYYCGTFAGGKYYGVFGGGTKLTVL
2. Antibody Bäratatza (antibody, V domains shown, full-length IgG) VH: QVQLVQSGAEVKKPGASVKVSCKASGYTFTSSYINWVRQAPGQGLEWMGTINAVSGSTSYAQKFQGRVTMTRDTSISTAYMELSRLRSDDTAVYYCARSGWFDYWGQGTLVTVSS VL: QSALTQPASVSGSPGQSITISCTGTSSDVGSYNYVNWYQQHPGKAPKLMIYGVSKQQSGVSNRFSGSKSGNTASLTISGLQAEDEADYYCGTFAGGSYYGVFGGGTKLTVL
3. Antibody Backstoikäs (antibody, V domains shown, full-length IgG) VH: QVQLVQSGAEVKKPGASVKVSCKASGYKFTSSYINWVRQAPGQGLEWMGTINPVSGSTSYAQKFQGRVTMTRDTSISTAYMELSRLRSDDTAVYYCARGGWFDYWGQGTLVTVSS VL: QSALTQPASVSGSPGQSITISCTGTSSDVGSYNYVNWYQQHPGKAPKLMIYGVSKRPRGVSNRFSGSKSGNTASLTISGLQAEDEADYYCGTFAGGSYYGVFGGGTKLTVL

OUT:
[0.211, 0.0537, 0.0875]
